PROTOCOL_SUMMARY: Eribulin mesylate blood plasma and tumor tissue PK in LOX cancer-bearing mice (Embodiment 11)
Assay type: in vivo
CONDITION_NOTES: female, NU/NU nude, mouse, iv; tumor tissue; 1.0 mg/kg into caudal vein; LOX cancer-bearing mice
Where a name gives a salt, the structure may show the parent alone.
QUANTITY_MEASURED: Cmax (ng/g)
One number for each entry, in ng/g.

**Query** What value of Cmax has been reported for the following compound? C=C1C[C@@H]2CC[C@@]34C[C@H]5O[C@H]6[C@@H](O3)[C@H]3O[C@H](CC[C@@H]3O[C@H]6[C@H]5O4)CC(=O)C[C@@H]3[C@@H](OC)[C@@H](C[C@H](O)CN)O[C@H]3C[C@H]3O[C@@H](CC[C@@H]1O2)C[C@@H](C)C3=C [eribulin mesylate]
**Result** 323

====

PROTOCOL_SUMMARY: Eribulin mesylate blood plasma and tumor tissue PK in LOX cancer-bearing mice (Embodiment 11)
Assay type: in vivo
CONDITION_NOTES: female, NU/NU nude, mouse, iv; tumor tissue; 1.0 mg/kg into caudal vein; LOX cancer-bearing mice
Structures can show the parent of a compound that is named as a salt.
QUANTITY_MEASURED: half-life (h)
Give bare numbers, in h.

**Query** Quick check: half-life of C=C1C[C@@H]2CC[C@@]34C[C@H]5O[C@H]6[C@@H](O3)[C@H]3O[C@H](CC[C@@H]3O[C@H]6[C@H]5O4)CC(=O)C[C@@H]3[C@@H](OC)[C@@H](C[C@H](O)CN)O[C@H]3C[C@H]3O[C@@H](CC[C@@H]1O2)C[C@@H](C)C3=C [eribulin mesylate] ?
**Result** 17.8

====

PROTOCOL_SUMMARY: Eribulin mesylate blood plasma and tumor tissue PK in LOX cancer-bearing mice (Embodiment 11)
Format: in vivo
CONDITION_NOTES: female, NU/NU nude, mouse, iv; tumor tissue; 1.0 mg/kg into caudal vein; LOX cancer-bearing mice
Where a name gives a salt, the structure may show the parent alone.
QUANTITY_MEASURED: AUC(0-inf) (ng·h/mL)
Give bare numbers, in ng·h/mL.

**Query** For the compound shown here, C=C1C[C@@H]2CC[C@@]34C[C@H]5O[C@H]6[C@@H](O3)[C@H]3O[C@H](CC[C@@H]3O[C@H]6[C@H]5O4)CC(=O)C[C@@H]3[C@@H](OC)[C@@H](C[C@H](O)CN)O[C@H]3C[C@H]3O[C@@H](CC[C@@H]1O2)C[C@@H](C)C3=C [eribulin mesylate] , give the reported AUC(0-inf).
**Result** 6290

====

PROTOCOL_SUMMARY: Eribulin mesylate blood plasma and tumor tissue PK in LOX cancer-bearing mice (Embodiment 11)
Type: in vivo
CONDITION_NOTES: female, NU/NU nude, mouse, iv; tumor tissue; 1.0 mg/kg into caudal vein; LOX cancer-bearing mice
Structures can show the parent of a compound that is named as a salt.
QUANTITY_MEASURED: AUC(0-t) (ng·h/mL)
Numbers only, in ng·h/mL.

**Query** Please report the recorded AUC(0-t) for C=C1C[C@@H]2CC[C@@]34C[C@H]5O[C@H]6[C@@H](O3)[C@H]3O[C@H](CC[C@@H]3O[C@H]6[C@H]5O4)CC(=O)C[C@@H]3[C@@H](OC)[C@@H](C[C@H](O)CN)O[C@H]3C[C@H]3O[C@@H](CC[C@@H]1O2)C[C@@H](C)C3=C [eribulin mesylate] .
**Result** 4650
